Test: Tmax in Sprague-Dawley rat at 20 mg/kg, po measured upto 24 hrs by LC/MS/MS analysis
Format: ADME, organism-based
Conditions: in vivo
PARAMETER MEASURED: Tmax (h)

INSERT INTO measurements (mol_smiles, unit_descriptor, reported_value) VALUES
  ('Nc1ncc(-c2cc3ccccc3o2)c(N2CCC3(CCNC3=O)CC2)c1Cl', 'h', 4),
  ('Nc1ncc(-c2cc3ccccc3s2)c(N2CCC3(CCNC3=O)CC2)c1Cl', 'h', 5);

----------
Target: Leucine-rich repeat serine/threonine-protein kinase 2 (Homo sapiens)
Sequence (Q5S007 whole entry): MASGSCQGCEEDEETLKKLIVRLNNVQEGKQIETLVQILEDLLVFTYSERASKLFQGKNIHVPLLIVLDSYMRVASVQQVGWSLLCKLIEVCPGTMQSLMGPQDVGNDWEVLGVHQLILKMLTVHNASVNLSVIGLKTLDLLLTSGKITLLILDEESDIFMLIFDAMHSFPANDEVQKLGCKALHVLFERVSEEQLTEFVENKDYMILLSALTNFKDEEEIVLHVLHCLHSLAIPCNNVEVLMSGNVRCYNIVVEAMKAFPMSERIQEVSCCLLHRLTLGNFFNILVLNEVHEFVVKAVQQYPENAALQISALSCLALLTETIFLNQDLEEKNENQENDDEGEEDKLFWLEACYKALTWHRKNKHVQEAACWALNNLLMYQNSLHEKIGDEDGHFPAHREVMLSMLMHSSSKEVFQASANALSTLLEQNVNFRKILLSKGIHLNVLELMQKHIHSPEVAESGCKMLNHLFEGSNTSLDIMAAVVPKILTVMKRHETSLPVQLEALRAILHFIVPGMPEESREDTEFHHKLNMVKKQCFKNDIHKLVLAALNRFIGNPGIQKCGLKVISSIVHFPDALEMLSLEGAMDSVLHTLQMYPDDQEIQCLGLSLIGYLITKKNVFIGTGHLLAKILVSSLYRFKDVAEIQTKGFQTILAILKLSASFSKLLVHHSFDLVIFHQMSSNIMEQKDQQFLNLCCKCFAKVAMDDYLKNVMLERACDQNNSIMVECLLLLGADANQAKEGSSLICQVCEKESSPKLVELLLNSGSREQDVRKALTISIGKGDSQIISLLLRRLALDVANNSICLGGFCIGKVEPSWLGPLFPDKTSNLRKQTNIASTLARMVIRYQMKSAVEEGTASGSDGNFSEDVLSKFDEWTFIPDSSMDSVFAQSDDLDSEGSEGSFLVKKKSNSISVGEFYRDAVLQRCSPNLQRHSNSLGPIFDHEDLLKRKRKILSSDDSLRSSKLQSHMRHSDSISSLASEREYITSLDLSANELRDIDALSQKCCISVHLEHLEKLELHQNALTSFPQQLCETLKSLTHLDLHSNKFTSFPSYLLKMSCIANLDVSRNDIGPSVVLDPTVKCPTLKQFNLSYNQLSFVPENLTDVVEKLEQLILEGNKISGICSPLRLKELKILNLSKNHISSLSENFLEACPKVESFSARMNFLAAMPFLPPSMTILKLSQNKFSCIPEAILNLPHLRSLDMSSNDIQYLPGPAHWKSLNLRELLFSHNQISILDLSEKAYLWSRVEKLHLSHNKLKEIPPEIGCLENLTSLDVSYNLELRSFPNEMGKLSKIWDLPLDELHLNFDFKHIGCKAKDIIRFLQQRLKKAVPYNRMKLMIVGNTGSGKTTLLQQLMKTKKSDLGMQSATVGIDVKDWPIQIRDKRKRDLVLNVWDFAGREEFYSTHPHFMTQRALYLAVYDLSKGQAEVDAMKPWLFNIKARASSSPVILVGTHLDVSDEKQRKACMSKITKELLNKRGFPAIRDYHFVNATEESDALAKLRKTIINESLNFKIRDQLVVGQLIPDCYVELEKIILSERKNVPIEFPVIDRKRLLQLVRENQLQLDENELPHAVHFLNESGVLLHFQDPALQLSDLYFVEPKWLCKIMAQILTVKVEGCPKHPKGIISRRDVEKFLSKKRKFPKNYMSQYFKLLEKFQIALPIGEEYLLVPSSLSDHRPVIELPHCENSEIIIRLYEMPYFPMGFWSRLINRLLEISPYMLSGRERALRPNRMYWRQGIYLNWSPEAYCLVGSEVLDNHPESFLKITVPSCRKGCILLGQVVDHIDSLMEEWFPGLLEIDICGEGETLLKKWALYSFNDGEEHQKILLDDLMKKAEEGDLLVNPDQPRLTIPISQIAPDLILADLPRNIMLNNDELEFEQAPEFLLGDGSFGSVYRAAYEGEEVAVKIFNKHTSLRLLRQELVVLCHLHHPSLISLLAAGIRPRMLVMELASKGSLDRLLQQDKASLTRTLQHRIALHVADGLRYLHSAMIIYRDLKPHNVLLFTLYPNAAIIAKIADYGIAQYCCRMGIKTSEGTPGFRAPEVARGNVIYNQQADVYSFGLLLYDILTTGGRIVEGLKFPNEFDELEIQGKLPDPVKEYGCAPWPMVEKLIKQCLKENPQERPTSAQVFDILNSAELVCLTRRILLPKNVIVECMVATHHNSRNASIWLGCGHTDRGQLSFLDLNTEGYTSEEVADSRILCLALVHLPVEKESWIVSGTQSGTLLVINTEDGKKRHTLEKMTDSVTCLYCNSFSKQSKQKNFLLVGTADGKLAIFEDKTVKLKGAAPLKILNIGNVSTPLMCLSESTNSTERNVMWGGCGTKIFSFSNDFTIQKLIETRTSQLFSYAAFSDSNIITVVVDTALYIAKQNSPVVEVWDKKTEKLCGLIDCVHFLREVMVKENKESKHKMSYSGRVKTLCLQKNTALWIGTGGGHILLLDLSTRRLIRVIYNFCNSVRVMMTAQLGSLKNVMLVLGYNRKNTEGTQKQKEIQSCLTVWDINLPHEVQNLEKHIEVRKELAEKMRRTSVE
PARAMETER MEASURED: Ki (nM)

INSERT INTO results (mol_smiles, parameter_measured, unit_descriptor, reported_value) VALUES
  ('Nc1ncc(-c2cc3ccccc3o2)c(N2CCC3(CCNC3=O)CC2)c1Cl', 'Ki', 'nM', 51);
